# assay conditions: 313.15 K; 100 kPa; Liquid; Vibrating tube method
mass density values by entry
reported metric: mass density (kg/m3)

compound: O=C1CCCO1 [γ-butyrolactone]
recorded number: 1109.69

compound: CC1CCCC(=O)O1 (stereo not given) [2H-pyran-2-one, tetrahydro-6-methyl-]
recorded number: 1032.15

compound: CC1CCC(=O)O1 (stereo not given) [γ-valerolactone]
recorded number: 1034.98

compound: CCC1CCC(=O)O1 (stereo not given) [2(3H)-furanone, 5-ethyldihydro-]
recorded number: 1007.07

compound: CC1=CCC(=O)O1 [5-methylfuran-2(3H)-one]
recorded number: 1072.38

---

# assay conditions: 298.15 K; 100 kPa; Liquid; Vibrating tube method

compound: CC1=CCC(=O)O1
mass density, kg/m3: 1088.55

compound: O=C1CCCO1
mass density, kg/m3: 1124.44

compound: CC1CCCC(=O)O1 (stereo not given) [2H-pyran-2-one, tetrahydro-6-methyl-]
mass density, kg/m3: 1045.14

compound: CC1CCC(=O)O1 (stereo not given)
mass density, kg/m3: 1049.1

compound: CCC1CCC(=O)O1 (stereo not given) [2(3H)-furanone, 5-ethyldihydro-]
mass density, kg/m3: 1020.33

---

mass density values by entry
# assay conditions: 293.15 K; 100 kPa; Liquid; Vibrating tube method
reported metric: mass density (kg/m3)

compound: CC1CCC(=O)O1 (stereo not given) [γ-valerolactone]
reported metric: mass density
recorded number: 1053.81
//
compound: CC1CCCC(=O)O1 (stereo not given) [2H-pyran-2-one, tetrahydro-6-methyl-]
reported metric: mass density
recorded number: 1049.47
//
compound: CC1=CCC(=O)O1 [5-methylfuran-2(3H)-one]
reported metric: mass density
recorded number: 1093.94
//
compound: CCC1CCC(=O)O1 (stereo not given) [2(3H)-furanone, 5-ethyldihydro-]
reported metric: mass density
recorded number: 1024.74
//
compound: O=C1CCCO1 [γ-butyrolactone]
reported metric: mass density
recorded number: 1129.35

---

# assay conditions: 303.15 K; 100 kPa; Liquid; Vibrating tube method
reported metric: mass density (kg/m3)

compound: CC1CCCC(=O)O1 (stereo not given) [2H-pyran-2-one, tetrahydro-6-methyl-]
reported metric: mass density
recorded number: 1040.81

compound: CC1CCC(=O)O1 (stereo not given)
reported metric: mass density
recorded number: 1044.4

compound: O=C1CCCO1
reported metric: mass density
recorded number: 1119.53

compound: CC1=CCC(=O)O1
reported metric: mass density
recorded number: 1083.16

compound: CCC1CCC(=O)O1 (stereo not given) [2(3H)-furanone, 5-ethyldihydro-]
reported metric: mass density
recorded number: 1015.91

---

mass density values by entry
# assay conditions: 288.15 K; 100 kPa; Liquid; Vibrating tube method

compound: CCC1CCC(=O)O1 (stereo not given) [2(3H)-furanone, 5-ethyldihydro-]
units text: kg/m3
mass density: 1029.16

compound: O=C1CCCO1 [γ-butyrolactone]
units text: kg/m3
mass density: 1134.26

compound: CC1=CCC(=O)O1 [5-methylfuran-2(3H)-one]
units text: kg/m3
mass density: 1099.32

compound: CC1CCCC(=O)O1 (stereo not given) [2H-pyran-2-one, tetrahydro-6-methyl-]
units text: kg/m3
mass density: 1053.81

compound: CC1CCC(=O)O1 (stereo not given) [γ-valerolactone]
units text: kg/m3
mass density: 1058.51

---

# assay conditions: 318.15 K; 100 kPa; Liquid; Vibrating tube method

compound: O=C1CCCO1 [γ-butyrolactone]
mass density (kg/m3): 1104.77

compound: CC1CCC(=O)O1 (stereo not given) [γ-valerolactone]
mass density (kg/m3): 1030.27

compound: CC1CCCC(=O)O1 (stereo not given) [2H-pyran-2-one, tetrahydro-6-methyl-]
mass density (kg/m3): 1027.82

compound: CCC1CCC(=O)O1 (stereo not given) [2(3H)-furanone, 5-ethyldihydro-]
mass density (kg/m3): 1002.65

compound: CC1=CCC(=O)O1 [5-methylfuran-2(3H)-one]
mass density (kg/m3): 1066.98

Hello, the source for this data is the NIST ThermoML archive (doi:10.1021/acs.jced.8b01146), in case you need it.
